Exercise: state measured log10 BCF for each of the compounds provided.
settings: fish

Worked set:
| COMPOUND | log10 BCF |
| --- | --- |
| O=[N+]([O-])c1c(Cl)c(Cl)c(Cl)c(Cl)c1Cl | 2.74 |
| COP(=O)(OC)OC=C(Cl)Cl | -0.3 |
| Clc1ccc(Cl)c(-c2ccc(Cl)c(Cl)c2Cl)c1 | 5.38 |

Take each entry in turn and give its log10 BCF.
1. O=C1CCCCCCCCCCCN1
2. Clc1cc(Cl)c(Cl)cc1Cl
3. Nc1cccc2c1C(=O)c1ccccc1C2=O
4. O=C(O)C(Cl)(Cl)Cl
5. ClC1=C(Cl)[C@]2(Cl)[C@H]3[C@H]([C@@H]4C=C[C@H]3C4)[C@@]1(Cl)C2(Cl)Cl (racemic)
6. Clc1cc2c(oc3cc(Cl)c(Cl)c(Cl)c32)c(Cl)c1Cl

1. 0.41
2. 3.44
3. 1.98
4. 0.23
5. 3.74
6. 3.94

---

Exercise: state measured melting point for each of the compounds provided.
Give bare numbers, in °C.

Worked set:
| COMPOUND | melting point / °C |
| --- | --- |
| CCCC(=O)CC | -55.5 |
| CC=NNc1ccccc1 | 99.5 |
| CC(=O)Cc1ccco1 | 29 |

Take each entry in turn and give its melting point.
1. N#Cc1c(F)c(F)cc(F)c1F
2. Clc1cc(Cl)c(Cl)cc1Cl
3. CC(C)(C)c1cccc(C(C)(C)C)n1
4. OCCC1CCCCC1
5. CC(C)(C)CC(=O)OCC(=O)[C@@]12OC(C)(C)O[C@@H]1C[C@H]1[C@@H]3CCC4=CC(=O)C=C[C@]4(C)[C@@]3(F)[C@@H](O)C[C@@]12C
6. Fc1ccc(C(c2ccc(F)cc2)C(Cl)(Cl)Cl)cc1

[34, 140, 2.2, -20, 295, 44.5]

---

Answer Condition not met if melting point is under 200 °C, and Condition met if it is 200 °C or more.

| COMPOUND | ASSIGNED LABEL |
| --- | --- |
| OC[C@H]1O[C@H](OC[C@H]2O[C@H](O)[C@H](O)[C@@H](O)[C@@H]2O)[C@H](O)[C@@H](O)[C@H]1O | Condition not met |
| N=C(N)NC(N)=O | Condition not met |
| CCC(C)OC(C)CC (configuration not stated) | Condition not met |
| CC(=O)O[C@]1(C(C)=O)CC[C@H]2[C@@H]3C[C@H](C)C4=CC(=O)C=C[C@]4(C)[C@@]3(F)[C@@H](O)C[C@@]21C | Condition met |
| N#Cc1cccc2ccccc12 | Condition not met |
| ClCC(CCl)(CCl)CCl | Condition not met |
| NC(=O)CC(N)C(=O)O (configuration not stated) | Condition met |
| CC(C)(C)C(=O)OCOc1ccccc1C(N)=O | Condition not met |
| NC(Cc1n[nH]c2ccccc12)C(=O)O (configuration not stated) | Condition met |
| ClC1=C(Cl)C2(Cl)C3C(Cl)OC(Cl)C3C1(Cl)C2(Cl)Cl (configuration not stated) | Condition not met |

Now consider the entry below.
Confirm if melting point reported for the compound CCCCCCCCCCCCOC(=O)c1cc(O)c(O)c(O)c1 is 200 °C or above.
Condition not met
